tested on: biotinyl-Phe-oxazolone; assay: self-aminoacylation, catalytic enhancement (BFO) (fold over background); higher = more active; k-Seq, kA / k0A0; sequences stand for … in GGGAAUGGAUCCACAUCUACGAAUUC…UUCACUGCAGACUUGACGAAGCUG
Fewer inactive variants are shown than the library holds.
# self-aminoacylation per entry

Examples with answers:
>>> print(df.to_string())
                                 seq_string  reported_measurement
0  GUACUUCAAAUAAUCGGUCUG [Fam1A.1 aminoacylation ribozyme variant]                  10.4
1  AAGUUUACUAAUAGUCGCAAA [Fam3.1 aminoacylation ribozyme variant]                  2.01
2  AAGUUCGCUAAUAAUCGCAAG [Fam3.1 aminoacylation ribozyme variant]                  1.54
3  AUUAGCCUGGUCAUCGAGGGA [Fam2.1 aminoacylation ribozyme variant]                  2.28
4  AAGGUUGCUACUAGUCGCAAG [Fam3.1 aminoacylation ribozyme variant]                     4

Lookup: Please look up its self-aminoacylation: AUUACCGUGAUCAUCGAGUGA [Fam2.1 aminoacylation ribozyme variant]
Found: 44.9

Lookup: Report self-aminoacylation for AAAUUCGCUAAUAGUCGCAAG [Fam3.1 aminoacylation ribozyme variant] please.
Found: 2.65

Lookup: Fill blank: measured self-aminoacylation of the sequence CUACUUCAAACAAUCGCUCAG [Fam1A.1 aminoacylation ribozyme variant] is ____.
Found: 1
